observed-property: melting point

Worked examples, 5 compounds total:
compound	melting point
CC(C)(C)OC(=O)N1CCCCC1c1c[nH]c2ncccc12 (stereo not given)	144 to 145 °C
Cc1nn(-c2ccccn2)c2nc3ccccc3c(C#N)c12	210 to 211 °C
O=C(NCc1ccc(Cl)cc1)c1cnc2sc(CN3CCOCC3)cc2c1O	193 to 195 °C
N#CN1C(=O)c2ccccc2C1=O	189 to 191 °C
CC(C)(C)NC(=O)N1CCN(c2ccc3ncc(Br)n3n2)CC1	199 to 200 °C

Reported melting point for COc1ccc(C(=O)Nc2ccccc2)cc1NC(=S)Nc1cc(C(F)(F)F)cc(C(F)(F)F)c1 was 192 to 193 °C

The compound listed as C=CCc1ccc(OCCC(C)C)c2c(=O)cc(C(=O)O)oc12 has a reported melting point of 79 to 80 °C

Reported melting point ( NC1CCCn2c1nc(-c1ccncc1)cc2=O (racemic) ) = 144 to 146 °C

melting point reading for Cc1cc(NC(=O)C(=O)N2CCCCC2)cc(C)c1S(=O)(=O)C[N+](=O)[O-] : 169 to 170 °C

// Nc1cccc(C(=O)O)c1NCc1ccccc1Cl : melting point value = 203 to 204 °C

----------
A collection of compounds and their measured melting point

compound	melting point
CCCCCCCCNC(=O)n1nc(Oc2ncc(C(F)(F)F)cc2Cl)c(Cl)c1C	61 to 62 °C
O=S(=O)(c1ccccc1)n1c(-c2cccc(C(O)c3cc4ccccc4n3S(=O)(=O)c3ccccc3)c2)cc2ccccc21 (stereo not given)	81 to 83 °C
Cc1c(N2CC[C@H](NC(=O)OC(C)(C)C)C2)c(F)c(N)c2c(=O)c(C(=O)O)cn(C3CC3)c12	135 to 136 °C

Lab note: measured melting point of CC1Sc2c(C(=O)O)c(=O)c3cc(F)c(N4CCC(O)C4)cc3n21 (stereo not given) was 206 to 208 °C

In plain terms, Cc1cc(=O)[nH]nc1-c1ccccc1 has a documented melting point of 125 to 126 °C

----------
observed-property: melting point

molecule	melting point
COc1cccc(-c2nc3ccc(OC(F)(F)F)cc3[nH]2)c1	192 to 194 °C
COC(=O)c1nc(N(C)C2CCCCC2)ccc1Oc1nc(OC)cc(OC)n1	116 to 118 °C
CC(C)(C)OC(=O)N[C@@H](Cc1ccccc1)C[C@H](O)[C@H](Cc1ccccc1)N(Cc1ccccc1)Cc1ccccc1	145 to 146 °C
O=C(OCCOc1ccc2ncnn2n1)C1CN(C(c2ccccc2)c2ccccc2)CCN1 (stereo not given)	157 to 159 °C
OC(Cn1ccnc1)C12CC3CC(CC(C3)C1)C2 (stereo not given)	226 to 228 °C

melting point reading for CCN1C(=O)N(c2c(F)c(OC)cc(OC)c2F)Cc2cnc(SC)nc21 : 165 to 168 °C

Just so you know, measured melting point for CCCc1c(OCCCCCOc2ccc(C(=O)c3ccccc3CC(=O)O)cc2CCC(=O)O)ccc2c1OCCC2=O came out at 105 to 108 °C

Value of measured melting point for the entry CCCCC(O)CNCCCCCCCCCCNCC(O)CCCC (stereo not given) : 127 to 137 °C

response.value for O=C(O)c1cccc(NC(=O)C(CS)Cc2ccc(F)cc2F)c1 (stereo not given) (field: melting point) = 168 to 170 °C

Recorded melting point (molecule O=C1CC(C(=O)O)N(C(=O)CCS)N1 (stereo not given) ): 140 to 142 °C

// sample Cc1[nH]cnc1CC1CCc2c(C)c3ccccc3n2C1=O (stereo not given) , its melting point was 226 to 229 °C

Recorded melting point (molecule CN1C(=O)CN(C(N)=O)C(c2ccccc2)c2cc(Cl)ccc21 (stereo not given) ): 214 to 217 °C

Field melting point (entry CC(C)(C)COc1ccc([N+](=O)[O-])cc1 ) reads 36 °C

melting point for CC(CC(=O)Nc1c(Cl)ccc2nc(N3CCC(NCCCO)C3)ccc12)c1ccccc1 (stereo not given) is 155 to 158 °C

// sample Cc1cccc(NC(=O)NCC(=O)N(c2ccccc2)C(C(=O)OC(C)(C)C)c2cccc(Br)c2)c1 (racemic) , its melting point was 103 °C

melting point for COc1ccc(CC(=O)O)cc1OCCCc1cn(-c2ccc(C(F)(F)F)cn2)nc1C1CCCCC1 is 117 to 118 °C

GET /value?item= COc1ccccc1-c1cc(N2CCN(Cc3ccc(C)cc3)CC2)n2ccc(=O)ccc12 &field=melting point returns 186 °C
